Assay: Toxicity in rabbit assessed as lethal dose
Set-up: species or system Oryctolagus cuniculus
Details: in vivo

{"molecule": "CCCOC(=O)Cc1ccc(OCC(=O)N(CC)CC)c(OCC)c1 [AZD-3043]", "LD50": "77.3 mg/kg"}
{"molecule": "CCCOC(=O)Cc1ccc(OCC(=O)N2CCN(c3ccccc3)CC2)c(OCC)c1", "LD50": "93.9 mg/kg"}
{"molecule": "CCCOC(=O)Cc1ccc(OCC(=O)N(CC)CC)c(OC)c1 [PROPANIDID]", "LD50": "75.4 mg/kg"}

====

Property: LD50; scope: individual compounds
Assay: Toxicity in mouse assessed as lethal dose
Settings: in vivo

{"smilesText": "CCOC(=O)Cc1ccc(OCC(=O)N2CCN(c3cccc(Cl)c3Cl)CC2)c(OCC)c1", "LD50 (mg/kg)": 237}
{"smilesText": "CCOC(=O)Cc1ccc(OCC(=O)N2CCN(c3ccccc3)CC2)c(OCC)c1", "LD50 (mg/kg)": 208}
{"smilesText": "CCCOC(=O)Cc1ccc(OCC(=O)N2CCN(c3cccc(C(F)(F)F)c3)CC2)c(OCC)c1", "LD50 (mg/kg)": 176}
{"smilesText": "CCOc1cc(CC(=O)OCC(F)(F)F)ccc1OCC(=O)N1CCN(c2ccccc2)CC1", "LD50 (mg/kg)": 193}
{"smilesText": "CCOc1cc(CC(=O)OC(C)C)ccc1OCC(=O)N1CCN(c2ccccc2)CC1", "LD50 (mg/kg)": 265}
{"smilesText": "COc1cc(CC(=O)OCC(F)(F)F)ccc1OCC(=O)N1CCN(c2ccccc2)CC1", "LD50 (mg/kg)": 200}
{"smilesText": "CCOc1cc(CC(=O)OCC(F)(F)F)ccc1OCC(=O)N1CCN(c2cccc(C(F)(F)F)c2)CC1", "LD50 (mg/kg)": 198}
{"smilesText": "CCCOC(=O)Cc1ccc(OCC(=O)N2CCN(c3ccccc3)CC2)c(OCC)c1", "LD50 (mg/kg)": 200}
{"smilesText": "CCOc1cc(CC(=O)OCC(F)(F)F)ccc1OCC(=O)N1CCN(c2cccc(C)c2C)CC1", "LD50 (mg/kg)": 227}
{"smilesText": "CCOC(=O)Cc1ccc(OCC(=O)N2CCN(c3cccc(C)c3C)CC2)c(OCC)c1", "LD50 (mg/kg)": 209}
{"smilesText": "CCOc1cc(CC(=O)OC(C)C)ccc1OCC(=O)N1CCN(c2cccc(C)c2C)CC1", "LD50 (mg/kg)": 200}
{"smilesText": "CCOC(=O)Cc1ccc(OCC(=O)N2CCN(c3cccc(C(F)(F)F)c3)CC2)c(OCC)c1", "LD50 (mg/kg)": 289}
{"smilesText": "CCCOC(=O)Cc1ccc(OCC(=O)N2CCN(c3cccc(Cl)c3Cl)CC2)c(OCC)c1", "LD50 (mg/kg)": 201}
{"smilesText": "CCOc1cc(CC(=O)OC(C)C)ccc1OCC(=O)N1CCN(c2cccc(C(F)(F)F)c2)CC1", "LD50 (mg/kg)": 163}
{"smilesText": "CCCOC(=O)Cc1ccc(OCC(=O)N2CCN(c3cccc(C)c3C)CC2)c(OCC)c1", "LD50 (mg/kg)": 269}
{"smilesText": "COc1cc(CC(=O)OCC(F)(F)F)ccc1OCC(=O)N1CCN(c2cccc(Cl)c2Cl)CC1", "LD50 (mg/kg)": 225}
{"smilesText": "CCOc1cc(CC(=O)OC(C)C)ccc1OCC(=O)N1CCN(c2cccc(Cl)c2Cl)CC1", "LD50 (mg/kg)": 254}
{"smilesText": "CCCOC(=O)Cc1ccc(OCC(=O)N2CCN(c3ccccc3)CC2)c(OC)c1", "LD50 (mg/kg)": 190}

====

Assay: Lipophilicity, logP of the compound
Type: physicochemical
Conditions: octanol/water

{"smilesText": "CCCOC(=O)Cc1ccc(OCC(=O)N2CCN(c3cccc(C(F)(F)F)c3)CC2)c(OCC)c1", "logP": 4.5}
{"smilesText": "COc1cc(CC(=O)OCC(F)(F)F)ccc1OCC(=O)N1CCN(c2cccc(Cl)c2Cl)CC1", "logP": 4.6}
{"smilesText": "CCCOC(=O)Cc1ccc(OCC(=O)N(CC)CC)c(OC)c1", "logP": 2.1}
{"smilesText": "CCOC(=O)Cc1ccc(OCC(=O)N2CCN(c3cccc(Cl)c3Cl)CC2)c(OCC)c1", "logP": 4.3}
{"smilesText": "CCOC(=O)Cc1ccc(OCC(=O)N2CCN(c3cccc(C(F)(F)F)c3)CC2)c(OCC)c1", "logP": 4.1}
{"smilesText": "CCOc1cc(CC(=O)OC(C)C)ccc1OCC(=O)N1CCN(c2ccccc2)CC1", "logP": 3.5}
{"smilesText": "CCOc1cc(CC(=O)OCC(F)(F)F)ccc1OCC(=O)N1CCN(c2ccccc2)CC1", "logP": 3.8}
{"smilesText": "CCOc1cc(CC(=O)OC(C)C)ccc1OCC(=O)N1CCN(c2cccc(C(F)(F)F)c2)CC1", "logP": 4.4}
{"smilesText": "CCCOC(=O)Cc1ccc(OCC(=O)N2CCN(c3cccc(C)c3C)CC2)c(OCC)c1", "logP": 4.6}
{"smilesText": "CCOc1cc(CC(=O)OCC(F)(F)F)ccc1OCC(=O)N1CCN(c2cccc(C(F)(F)F)c2)CC1", "logP": 4.7}
{"smilesText": "COc1cc(CC(=O)OCC(F)(F)F)ccc1OCC(=O)N1CCN(c2ccccc2)CC1", "logP": 3.4}
{"smilesText": "CCOc1cc(CC(=O)OC(C)C)ccc1OCC(=O)N1CCN(c2cccc(Cl)c2Cl)CC1", "logP": 4.6}
{"smilesText": "CCOc1cc(CC(=O)OCC(F)(F)F)ccc1OCC(=O)N1CCN(c2cccc(C)c2C)CC1", "logP": 4.7}
{"smilesText": "CCOC(=O)Cc1ccc(OCC(=O)N2CCN(c3ccccc3)CC2)c(OCC)c1", "logP": 3.1}
{"smilesText": "CCOc1cc(CC(=O)OC(C)C)ccc1OCC(=O)N1CCN(c2cccc(C)c2C)CC1", "logP": 4.4}
{"smilesText": "CCOC(=O)Cc1ccc(OCC(=O)N2CCN(c3cccc(C)c3C)CC2)c(OCC)c1", "logP": 4.1}
{"smilesText": "CCCOC(=O)Cc1ccc(OCC(=O)N(CC)CC)c(OCC)c1", "logP": 2.5}
{"smilesText": "CCCOC(=O)Cc1ccc(OCC(=O)N2CCN(c3ccccc3)CC2)c(OC)c1", "logP": 3.3}
{"smilesText": "CCCOC(=O)Cc1ccc(OCC(=O)N2CCN(c3ccccc3)CC2)c(OCC)c1", "logP": 3.6}
{"smilesText": "CCCOC(=O)Cc1ccc(OCC(=O)N2CCN(c3cccc(Cl)c3Cl)CC2)c(OCC)c1", "logP": 4.7}

====

Assay: Toxicity in rat assessed as lethal dose
Settings: in vivo

{"smilesText": "CCCOC(=O)Cc1ccc(OCC(=O)N(CC)CC)c(OC)c1", "LD50, mg/kg": 81}
{"smilesText": "CCCOC(=O)Cc1ccc(OCC(=O)N2CCN(c3ccccc3)CC2)c(OCC)c1", "LD50, mg/kg": 72.9}
{"smilesText": "CCCOC(=O)Cc1ccc(OCC(=O)N(CC)CC)c(OCC)c1", "LD50, mg/kg": 79.8}

====

Test: Therapeutic index, ratio of LD50 for toxicity in mouse to HD50 for anesthetic activity in mouse
Type: organism-based
Settings: in vivo, read-out: TI
Property: selectivity ratio; scope: individual compounds
testReadout: selectivity ratio

{"compound": "CCOC(=O)Cc1ccc(OCC(=O)N2CCN(c3cccc(C)c3C)CC2)c(OCC)c1", "testReadout": "selectivity ratio", "value": 6.5}
{"compound": "CCCOC(=O)Cc1ccc(OCC(=O)N(CC)CC)c(OC)c1 [PROPANIDID]", "testReadout": "selectivity ratio", "value": 5.6}
{"compound": "CCOc1cc(CC(=O)OCC(F)(F)F)ccc1OCC(=O)N1CCN(c2cccc(C)c2C)CC1", "testReadout": "selectivity ratio", "value": 6.4}
{"compound": "CCCOC(=O)Cc1ccc(OCC(=O)N2CCN(c3ccccc3)CC2)c(OC)c1", "testReadout": "selectivity ratio", "value": 5.7}
{"compound": "CCCOC(=O)Cc1ccc(OCC(=O)N2CCN(c3cccc(Cl)c3Cl)CC2)c(OCC)c1", "testReadout": "selectivity ratio", "value": 5.2}
{"compound": "CCOc1cc(CC(=O)OCC(F)(F)F)ccc1OCC(=O)N1CCN(c2cccc(C(F)(F)F)c2)CC1", "testReadout": "selectivity ratio", "value": 6.3}
{"compound": "COc1cc(CC(=O)OCC(F)(F)F)ccc1OCC(=O)N1CCN(c2cccc(Cl)c2Cl)CC1", "testReadout": "selectivity ratio", "value": 6.5}
{"compound": "CCOC(=O)Cc1ccc(OCC(=O)N2CCN(c3cccc(C(F)(F)F)c3)CC2)c(OCC)c1", "testReadout": "selectivity ratio", "value": 6.8}
{"compound": "CCOc1cc(CC(=O)OC(C)C)ccc1OCC(=O)N1CCN(c2cccc(Cl)c2Cl)CC1", "testReadout": "selectivity ratio", "value": 6.4}
